Below, each of the compounds is paired with its reported GI50 value.
Tested on: MALME-3M melanoma
protocol_details: NCI tumour cell line growth inhibition, 48 h
property_measured: GI50

{"columns": ["smiles_repr", "system", "reported_value"],
 "data": [
  ["Oc1[nH]c2ccccc2c1/C=c1/ccc2c(c1)N=C(c1cc(F)cc(F)c1)N=2", "MALME-3M melanoma", "10.1 µM"],
  ["O=C(Nc1ccc(Cl)cc1)c1cc2ccccc2cc1OP(=O)(O)O", "MALME-3M melanoma", "1.91 µM"],
  ["COc1ccc2c(c1)C(=O)c1c-2c(OCCN2CCCCC2)nc2ccc(OC)cc12", "MALME-3M melanoma", "1.27 µM"],
  ["CC/C(=C(/CC)c1ccc(O)cc1)c1ccc(O)cc1", "MALME-3M melanoma", "5.54 µM"],
  ["NCCCCCCCCCn1c2c(c3ccccc3c1=O)C(=O)c1ccccc1-2", "MALME-3M melanoma", "9.17 µM"]
]}

###

Test system: RXF-631 renal
protocol_details: NCI tumour cell line growth inhibition, 48 h

{"columns": ["molecule", "TGI"],
 "data": [
  ["Cc1ccc(S(=O)(=O)OC2CSSCC2OS(=O)(=O)c2ccc(C)cc2)cc1 (configuration not stated)", "26.5 µM"],
  ["Cc1cc(C)c(C(=O)/C(=C/c2ccccc2)c2ccccc2)c(C)c1", "> 100 µM"],
  ["O=[P+](O)c1cccnc1", "> 100 µM"],
  ["CCOC(=O)Cn1c(=O)[nH]c(=O)c2[nH]cnc21", "> 100 µM"],
  ["CCCCC1N=CNc2c1ccc1c2[nH]c2ccccc21 (configuration not stated)", "5.97 µM"],
  ["C/C(CC(=O)Nc1cccc(C)c1C)=N\\NC(N)=S", "> 100 µM"],
  ["COC(=O)Cc1nn2c(nc1=O)sc1ccc3ccccc3c12", "> 100 µM"],
  ["Cc1cc2c(C)nn(Cc3ccccc3Cl)c2c(C#N)c1C", "> 100 µM"],
  ["N/C(=N/N=C/c1cccc(F)c1)NO", "> 100 µM"],
  ["COC(=O)c1cc2c(nc1C)-c1ccccc1OS2(=O)=O", "> 100 µM"],
  ["COc1ccc(NC(=O)C2=CC(=O)c3ccc(O)cc3C2=O)c(OC)c1", "> 100 µM"],
  ["CC(O)c1ccc(C(O)/C(=N\\NC(=O)c2ccncc2)c2nc3ccc([N+](=O)[O-])cc3[nH]c2=O)cc1 (configuration not stated)", "> 100 µM"]
]}

###

Tested on: IGROV1 ovarian
protocol_details: NCI tumour cell line growth inhibition, 48 h

{"columns": ["molecule", "TGI"],
 "data": [
  ["NCCN(CCN)/[N+]([O-])=N/O", "> 100 µM"],
  ["CC(=O)CC12NC(=O)N(C)N=C1N(C)C(=O)N(C)C2=O (configuration not stated)", "> 100 µM"],
  ["CCOC(=O)C1=C(C)N(c2ccc(Cl)cc2)C2(O)C=CC(Nc3ccc(Cl)cc3)=C3C(=O)N(c4ccccc4)C(=O)C312 (configuration not stated)", "21.9 µM"],
  ["C/C(CC(=O)Nc1cccc(C)c1C)=N\\NC(N)=S", "> 100 µM"],
  ["Cc1cc(N)c2cc(NC(=O)Nc3ccc4nc(C)cc(N)c4c3)ccc2n1", "> 100 µM"],
  ["CCN(CC)CC(O)c1cc(-c2ccc(Cl)cc2)nc2cc(Cl)ccc12 (configuration not stated)", "2.47 µM"],
  ["CC(C)(N)C(=O)N[C@@H]1C(=O)N2[C@@H]1SC(C)(C)[C@@H]2C(=O)O", "> 100 µM"]
]}

All values here come from PubChem BioAssay (NCI).
